System: Plasmodium falciparum
ASSAY SUMMARY: Screen against P. falciparum Asexual Blood Stage (ABS), at 5uM
Assay type: functional, Dd2
EXPERIMENTAL PARAMETERS: tested at 5 uM
Screen size: about 65,000 compounds; about 2,100 (3.2%) showed an effect of 50% or more. The median lay at about -52%. The entries come from a sample that favours strong results as a whole.
MEASURED PARAMETER: INHIBITION (%)
Write the number in % without appending the unit.

Answered examples (5):
{"COMPOUND STRUCTURE": "CC(C)CCC(=O)N1CCC2(CC1)OCCO2", "TESTED ON": "Plasmodium falciparum", "INHIBITION (%)": -8.85}
{"COMPOUND STRUCTURE": "Cc1cnn(CCNCc2csc(-c3ccsc3)n2)c1", "TESTED ON": "Plasmodium falciparum", "INHIBITION (%)": 72.3}
{"COMPOUND STRUCTURE": "Cc1nc(CN2CCO[C@H]3CN(C(=O)c4ccncc4)C[C@H]32)cs1", "TESTED ON": "Plasmodium falciparum", "INHIBITION (%)": -109}
{"COMPOUND STRUCTURE": "CCc1nc(CN2CCCN(C(=O)Cc3cccs3)CC2)cs1", "TESTED ON": "Plasmodium falciparum", "INHIBITION (%)": 3.65}
{"COMPOUND STRUCTURE": "CCCOc1ccc2ccccc2c1CN1CC[C@@]2(O)CCNC[C@H]2C1", "TESTED ON": "Plasmodium falciparum", "INHIBITION (%)": 93.2}

# INHIBITION of `CSCCCN1CC[C@@]2(O)CCN(c3ncccn3)C[C@H]2C1` = 16.4

# INHIBITION of `O=C(c1cscn1)N1CCC2(CN(Cc3ccncc3)C2)C1` = -48

# INHIBITION of `COc1ccccc1CNCc1nn(-c2ccccc2)c2c1CCC2` = 81.6

# INHIBITION of `CN(C)CCN(C)C(=O)Cn1cccc2cc(-c3ccc(F)cc3)nc1-2` = 86.8

# INHIBITION of `Cc1ccc(CN2CCN(C)c3ncccc3C2)o1` = -75.5

# INHIBITION of `CCC(=O)NCC(=O)NCC1(c2c(F)cccc2F)CCCC1` = 73.7

Source of measurements: ChEMBL document CHEMBL4513216
